Threshold-based label: logP under 2 gives Y, logP not under 2 gives N.

{"compound": "CN(C)C(=O)Oc1cccc([N+](=O)[O-])c1", "category": "Y"}
{"compound": "C#CCNC(=O)NCCCCC(NC(C)=O)C(=O)NCc1ccccc1 (stereo not drawn)", "category": "Y"}
{"compound": "C#CCOc1cc(NC=NOC)cc(Cl)c1OCC#C", "category": "N"}
{"compound": "CC(=O)Nc1n[n+]([O-])c2cc(C)ccc2[n+]1[O-]", "category": "Y"}
{"compound": "COc1ccc2cc(CC(=O)OCC(N)=O)ccc2c1", "category": "Y"}
{"compound": "C#CCCOC(=O)Nc1ccc(OCC)c(OCC)c1", "category": "N"}
{"compound": "C#CCON=CNc1cc(Cl)c(OCC#C)c(OCC#C)c1", "category": "N"}
{"compound": "CCSc1nnc(C(C)(C)C)c(=O)n1N", "category": "N"}
{"compound": "N#CN=C1NCCN1Cc1ccc(Cl)nc1", "category": "Y"}
{"compound": "CCC1CCC(Cc2ccc(Cl)cc2)C1(O)Cn1cncn1 (stereo not drawn)", "category": "N"}
{"compound": "CCOc1ccc(NC(=O)OC(C)CCl)cc1OCC (stereo not drawn)", "category": "N"}
{"compound": "CC1(C)CC2=NOS3=C2C(=NO3)C1", "category": "Y"}
{"compound": "CCCN(CCCC(NC(C)=O)C(=O)NCc1ccccc1)C(=O)NC (stereo not drawn)", "category": "Y"}
{"compound": "CCCN(CCCC(NC(C)=O)C(=O)NCc1ccccc1)C(=O)N(C)N=O (stereo not drawn)", "category": "Y"}
{"compound": "CCNC(=O)COC(=O)Cc1ccc2cc(OC)ccc2c1", "category": "N"}
{"compound": "COC1N(C2CC(N=[N+]=[N-])C(CO)O2)C(=O)NC(=O)C1(C)Cl (stereo not drawn)", "category": "Y"}
{"compound": "CCCCCCOc1ccccc1NC(=O)OC1CCCCC1CN(C)C (stereo not drawn)", "category": "N"}
{"compound": "CCCN(CCC)C(=O)COC(=O)Cc1ccc2cc(OC)ccc2c1", "category": "N"}
